Taken from paper PMC9238395.

Target: SPD_0310 (Streptococcus pneumoniae)
Construct: recombinant SPD_0310 expressed from pGEX-4T-1, GST tag removed with thrombin; homotetramer
Sequence (Q04MC1 whole entry): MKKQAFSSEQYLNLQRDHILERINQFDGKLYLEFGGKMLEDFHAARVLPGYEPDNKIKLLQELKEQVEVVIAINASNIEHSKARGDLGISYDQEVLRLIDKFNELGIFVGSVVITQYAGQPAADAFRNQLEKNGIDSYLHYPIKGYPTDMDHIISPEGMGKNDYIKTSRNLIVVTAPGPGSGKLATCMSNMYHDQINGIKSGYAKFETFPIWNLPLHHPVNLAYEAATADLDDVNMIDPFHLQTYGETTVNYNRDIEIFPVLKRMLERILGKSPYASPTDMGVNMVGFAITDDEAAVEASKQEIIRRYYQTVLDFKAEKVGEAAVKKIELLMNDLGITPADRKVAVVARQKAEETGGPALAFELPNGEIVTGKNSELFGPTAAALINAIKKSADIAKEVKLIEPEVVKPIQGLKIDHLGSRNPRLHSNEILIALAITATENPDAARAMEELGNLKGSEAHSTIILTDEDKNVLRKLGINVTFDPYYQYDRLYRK
Test: SPR; also dialysis/ICP-MS, hemin-agarose pulldown, UV-Vis shift, CD thermal shift, stopped-flow fluorescence
property name: pKd
One number for each entry, as −log10 of the molar value.

Item: "C=CC1=C(C)C2=Cc3c(C=C)c(C)c4[n]3[Fe]([Cl])[n]3c(c(C)c(CCC(=O)O)c3=CC3=NC(=C4)C(C)=C3CCC(=O)O)=CC1=N2" | System: SPD_0310 (Streptococcus pneumoniae) | pKd: 7.01
